procedure.text: small molecules captured by biotinylated probe aFSTL3 – biochemical, small-molecule microarray, fluorescence 635/667, stem cell growth factor project, primary screen (AID 1064);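 note: measures binding of the biotinylated anti-FSTL3 antibody to printed compounds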
test.context: higher = more signal
# cutoff 0.5 applies to composite z-score; >= gives criterion met, < gives criterion not met

- sample.smiles: "COc1ccc(CCNC(=O)[C@@H]2c3ccccc3C(=O)N(Cc3ccccc3C(F)(F)F)[C@H]2c2ccc(CO)cc2)cc1"
  group.label: "criterion not met"
- sample.smiles: "CC(C)CNC(=O)[C@@]1(c2ccc([N+](=O)[O-])cc2)CC(=O)N(C(C)C)[C@@H]1c1ccc(CO)cc1"
  group.label: "criterion met"
- sample.smiles: "COc1ccc([Si](C)(C)[C@H]2[C@H](CCn3cc(CCO)nn3)O[C@@]3(C(=O)N(Cc4cccc(N5C(=O)c6cccc7cccc5c67)c4)c4ccccc43)[C@@H]2C)cc1"
  group.label: "criterion not met"
- sample.smiles: "[N-]=[N+]=NCc1ccccc1[C@H]1OC(c2ccc(OCCCO)cc2)=N[C@@]1(Cc1ccccc1)C(N)=O"
  group.label: "criterion met"
- sample.smiles: "CCCCCCC#C[Si](O[C@H](c1ccccc1)c1cn(Cc2cccc(Cl)c2)nn1)(C(C)C)C(C)C"
  group.label: "criterion not met"
- sample.smiles: "CCCN1C(=O)[C@@]2(Cc3ccccc3)N=C(c3ccc(OCCCO)cc3)O[C@H]2c2ccccc21"
  group.label: "criterion not met"
- sample.smiles: "O=C1C[C@@](C(=O)O)(c2ccc([N+](=O)[O-])cc2)[C@@H](c2ccc(CO)cc2)N1CC12CC3CC(CC(C3)C1)C2"
  group.label: "criterion met"

Data origin: PubChem BioAssay
